Reported Ki values, 5HT2A receptor (Rattus norvegicus).
I only need the number, in nM, no unit after it.

smi	Ki, nM
CCc1cc2c(s1)Nc1ccccc1N=C2N1CCN(C)CC1	3.7
Cc1cc2c(s1)Nc1ccccc1N=C2N1CCCN(C)CC1	787

Quick one: Ki of CCc1cc2c(s1)Nc1ccccc1N=C2N1CCCN(C)CC1 ? 81.2

---

Target: D2 receptor (Rattus norvegicus)
Construct: The prefrontal cortex, striatum and hypothalamus were homogenized in about 6 volumes of ice-cold buffer
Sequence (P61169 whole entry): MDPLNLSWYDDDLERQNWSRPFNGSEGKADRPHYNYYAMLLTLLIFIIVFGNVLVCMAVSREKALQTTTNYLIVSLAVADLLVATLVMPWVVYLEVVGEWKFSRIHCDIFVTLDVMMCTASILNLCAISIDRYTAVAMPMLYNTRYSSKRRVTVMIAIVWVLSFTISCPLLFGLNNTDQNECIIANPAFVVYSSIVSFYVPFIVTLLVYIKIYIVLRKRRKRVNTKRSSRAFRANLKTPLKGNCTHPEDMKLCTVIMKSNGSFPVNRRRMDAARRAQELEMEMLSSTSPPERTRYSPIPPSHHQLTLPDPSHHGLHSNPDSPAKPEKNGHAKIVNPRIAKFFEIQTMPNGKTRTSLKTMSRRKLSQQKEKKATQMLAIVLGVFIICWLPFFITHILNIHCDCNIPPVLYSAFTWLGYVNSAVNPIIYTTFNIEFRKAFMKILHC
Experiment: [3H]-Spiperone radioligand binding assay, rat striatum membrane homogenate
Conditions: read-out: Ki ± SD D2
Listed next: entries and their corresponding Ki.

Answered examples (2):
smi	quantityMeasured	measuredResult
Cc1cc2c(s1)Nc1ccccc1N=C2N1CCCN(C)CC1	Ki	3940 nM
CCc1cc2c(s1)Nc1ccccc1N=C2N1CCCN(C)CC1	Ki	791 nM

Next molecule, Ki to be filled in.
What Ki value was documented for this molecule, CCc1cc2c(s1)Nc1ccccc1N=C2N1CCN(C)CC1 ? 54.5 nM

---

Quick record: Ki, H1 receptor (Rattus norvegicus).
// return numeric value only (unit: nM, not printed)

The following compounds have reported results that may help.
compound	unitsOfMeasure	Ki
Cc1cc2c(s1)Nc1ccccc1N=C2N1CCCN(C)CC1 [Compound 8a]	nM	33.5
CCc1cc2c(s1)Nc1ccccc1N=C2N1CCCN(C)CC1 [Compound 8b]	nM	13.6

# Ki lookup, item CCc1cc2c(s1)Nc1ccccc1N=C2N1CCN(C)CC1 [Compound 8c] 1.95
